src = ChEMBL document CHEMBL1149650

tested on: BaF3; experiment: Antiproliferative activity against human BaF3 cells expressing FLT3; settings: Mus musculus
READOUT_NAME: IC50 (nM)

• CO/N=C/c1c(N)ncnc1N1CCN(C(=O)Nc2ccc(C(C)C)cc2)CC1 = 8
• CO/N=C/c1c(N)ncnc1N1CCN(C(=O)Nc2ccc(N3CCCCC3)cc2)CC1 = 153

---

target: Mast/stem cell growth factor receptor Kit (Homo sapiens, UniProt P10721); test: Inhibition of c-kit
Sequence (P10721 whole entry): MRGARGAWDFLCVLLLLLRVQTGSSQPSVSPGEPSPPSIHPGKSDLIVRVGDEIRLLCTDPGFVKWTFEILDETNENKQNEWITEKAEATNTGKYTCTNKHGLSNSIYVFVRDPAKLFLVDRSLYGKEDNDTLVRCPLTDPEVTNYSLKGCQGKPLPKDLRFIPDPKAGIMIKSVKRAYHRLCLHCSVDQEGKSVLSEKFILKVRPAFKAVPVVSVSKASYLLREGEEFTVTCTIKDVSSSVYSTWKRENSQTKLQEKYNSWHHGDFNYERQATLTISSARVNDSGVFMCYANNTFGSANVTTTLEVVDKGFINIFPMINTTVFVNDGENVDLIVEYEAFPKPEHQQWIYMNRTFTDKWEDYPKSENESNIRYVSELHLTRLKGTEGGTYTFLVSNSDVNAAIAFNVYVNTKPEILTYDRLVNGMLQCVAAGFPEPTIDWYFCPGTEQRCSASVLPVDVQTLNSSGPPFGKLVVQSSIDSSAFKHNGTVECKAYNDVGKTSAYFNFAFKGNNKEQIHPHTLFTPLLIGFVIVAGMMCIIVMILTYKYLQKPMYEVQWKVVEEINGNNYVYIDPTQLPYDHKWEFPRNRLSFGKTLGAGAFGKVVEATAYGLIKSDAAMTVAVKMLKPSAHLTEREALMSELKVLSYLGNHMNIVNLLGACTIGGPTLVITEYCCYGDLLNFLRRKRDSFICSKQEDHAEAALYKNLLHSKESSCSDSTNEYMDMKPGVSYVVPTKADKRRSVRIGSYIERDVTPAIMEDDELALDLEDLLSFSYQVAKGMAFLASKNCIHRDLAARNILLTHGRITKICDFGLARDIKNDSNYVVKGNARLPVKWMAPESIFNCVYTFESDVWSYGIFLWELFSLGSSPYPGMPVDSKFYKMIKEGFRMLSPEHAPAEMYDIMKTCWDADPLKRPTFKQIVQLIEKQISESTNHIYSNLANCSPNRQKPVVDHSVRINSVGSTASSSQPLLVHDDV
pIC50: −log10 of the molar value.
READOUT_NAME: pIC50

• CO/N=C/c1c(N)ncnc1N1CCN(C(=O)Nc2ccc(OC(C)C)cc2)CC1 = 7.98

---

target: Platelet-derived growth factor receptor beta (Homo sapiens)
Sequence (P09619 whole entry): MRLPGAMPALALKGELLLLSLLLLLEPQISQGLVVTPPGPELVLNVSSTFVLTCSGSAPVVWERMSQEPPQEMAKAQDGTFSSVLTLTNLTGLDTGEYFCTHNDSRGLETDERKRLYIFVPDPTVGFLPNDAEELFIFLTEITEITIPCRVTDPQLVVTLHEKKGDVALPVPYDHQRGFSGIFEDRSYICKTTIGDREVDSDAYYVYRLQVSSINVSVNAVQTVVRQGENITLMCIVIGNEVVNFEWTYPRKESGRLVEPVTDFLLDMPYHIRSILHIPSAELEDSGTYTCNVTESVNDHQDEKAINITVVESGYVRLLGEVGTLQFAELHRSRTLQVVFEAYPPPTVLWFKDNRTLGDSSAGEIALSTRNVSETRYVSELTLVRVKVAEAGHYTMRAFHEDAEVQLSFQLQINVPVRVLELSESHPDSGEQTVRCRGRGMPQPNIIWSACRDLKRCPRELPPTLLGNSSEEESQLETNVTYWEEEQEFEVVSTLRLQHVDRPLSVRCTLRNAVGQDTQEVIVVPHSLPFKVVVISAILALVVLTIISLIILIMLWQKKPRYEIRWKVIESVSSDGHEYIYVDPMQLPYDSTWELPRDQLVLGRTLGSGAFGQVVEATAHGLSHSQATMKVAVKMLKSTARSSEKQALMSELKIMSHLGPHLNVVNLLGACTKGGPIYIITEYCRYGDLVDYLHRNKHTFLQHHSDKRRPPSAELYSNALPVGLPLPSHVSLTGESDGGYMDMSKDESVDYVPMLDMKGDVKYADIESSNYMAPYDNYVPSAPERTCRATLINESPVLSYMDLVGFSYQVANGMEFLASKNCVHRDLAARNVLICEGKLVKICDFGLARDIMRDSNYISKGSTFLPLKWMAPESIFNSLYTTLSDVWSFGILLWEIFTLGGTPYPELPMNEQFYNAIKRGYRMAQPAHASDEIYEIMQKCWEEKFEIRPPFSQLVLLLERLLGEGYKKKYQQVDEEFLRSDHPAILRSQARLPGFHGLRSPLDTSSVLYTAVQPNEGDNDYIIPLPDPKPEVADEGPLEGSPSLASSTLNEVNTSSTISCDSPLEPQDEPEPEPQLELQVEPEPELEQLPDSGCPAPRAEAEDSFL
READOUT_NAME: IC50 (µM)

• CO/N=C/c1c(N)ncnc1N1CCN(C(=O)Nc2ccc(OC(C)C)cc2)CC1 = 10.7
